Target: DRB1*0301 (DR3) (Homo sapiens, UniProt P01903+P01911, A100K/A102G/A103R/A169T/F55Y/I96L/K41T/L162R/M171V/P40S/Q125H/Q178H/Q39Y/R42S/S66N/T106N/T262R/W38E/Y61H)
Sequence (P01903 26-254 limits assumed, other chains not shown): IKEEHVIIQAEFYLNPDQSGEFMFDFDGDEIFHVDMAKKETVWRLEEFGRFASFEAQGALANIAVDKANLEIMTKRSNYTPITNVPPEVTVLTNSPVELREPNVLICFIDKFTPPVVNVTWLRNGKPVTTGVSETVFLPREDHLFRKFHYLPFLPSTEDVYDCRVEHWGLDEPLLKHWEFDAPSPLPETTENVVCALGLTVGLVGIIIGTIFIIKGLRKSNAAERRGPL
Test: HLA class II peptide binding assay, purified HLA
Conditions: Table XXa, DR 3a motif peptides; unit not given
Define the label as Y when DR3 binding data is strictly less than 0.02 and as N in all remaining cases.

Study these solved cases before continuing.
CC[C@H](C)[C@H](NC(=O)[C@@H]1CCCN1C(=O)[C@H](CCSC)NC(=O)[C@H](Cc1ccc(O)cc1)NC(=O)[C@H](CO)NC(=O)[C@H](CC(C)C)NC(=O)[C@H](CC(=O)O)NC(=O)[C@@H]1CCCN1C(=O)[C@H](CCCCN)NC(=O)[C@@H](NC(=O)CNC(=O)[C@H](CO)NC(=O)[C@@H]1CCCN1)C(C)C)C(=O)N[C@@H](Cc1c[nH]c2ccccc12)C(=O)N[C@@H](CCCCN)C(=O)O
Y
CC(C)C[C@H](NC(=O)[C@H](C)NC(=O)[C@H](Cc1ccc(O)cc1)NC(=O)[C@H](CC(N)=O)NC(=O)[C@H](CC(=O)O)NC(=O)[C@H](CCC(=O)O)NC(=O)[C@H](Cc1ccccc1)NC(=O)[C@H](CC(C)C)NC(=O)[C@H](CCC(N)=O)NC(=O)[C@@H](NC(=O)CN)[C@@H](C)O)C(=O)N[C@@H](C)C(=O)N[C@H](C(=O)N[C@@H](CC(C)C)C(=O)N[C@@H](CC(=O)O)C(=O)O)C(C)C
N
CSCC[C@H](NC(=O)[C@H](CC(=O)O)NC(=O)[C@H](CC(=O)O)NC(=O)[C@H](CC(=O)O)NC(=O)[C@H](CCC(=O)O)NC(=O)[C@H](CC(C)C)NC(=O)[C@H](CC(C)C)NC(=O)[C@H](CO)NC(=O)[C@@H](N)CCCNC(=N)N)C(=O)NCC(=O)N[C@@H](CC(=O)O)C(=O)N[C@@H](CC(C)C)C(=O)N[C@H](C(=O)N[C@@H](CC(=O)O)C(=O)N[C@@H](C)C(=O)O)C(C)C
Y

Exam item: Threshold test, DR3 binding data < 0.02: "CC[C@H](C)[C@H](NC(=O)[C@@H](NC(=O)[C@@H](NC(=O)[C@H](Cc1ccccc1)NC(=O)[C@H](CCCNC(=N)N)NC(=O)[C@H](CCC(N)=O)NC(=O)[C@@H]1CCCN1C(=O)[C@H](CC(=O)O)NC(=O)[C@H](CCCNC(=N)N)NC(=O)[C@H](C)NC(=O)[C@H](CCSC)NC(=O)[C@H](CCCNC(=N)N)NC(=O)[C@H](CO)NC(=O)[C@@H](N)Cc1ccccc1)C(C)C)C(C)C)C(=O)N[C@@H](CCC(N)=O)C(=O)O"
Marked response: N

Exam item: Is the reported DR3 binding data for "CC(C)C[C@H](NC(=O)[C@H](CCC(N)=O)NC(=O)[C@H](CC(=O)O)NC(=O)[C@H](Cc1c[nH]c2ccccc12)NC(=O)[C@@H]1CCCN1C(=O)[C@@H](NC(=O)[C@@H](NC(=O)[C@H](Cc1c[nH]cn1)NC(=O)[C@@H](N)C(C)C)[C@@H](C)O)C(C)C)C(=O)N[C@@H](Cc1ccccc1)C(=O)N[C@@H](CCCNC(=N)N)C(=O)N[C@@H](CC(N)=O)C(=O)N1CCC[C@H]1C(=O)N[C@@H](Cc1c[nH]cn1)C(=O)N[C@@H](CCC(N)=O)C(=O)O" strictly below 0.02?
Marked response: N
